- assay.target: K-Ras G12C (Homo sapiens (Human), UniProt P01116+P62937, G12C)
- Sequence (P01116-2 other isoform, or with tags, fused parts or gaps G12C): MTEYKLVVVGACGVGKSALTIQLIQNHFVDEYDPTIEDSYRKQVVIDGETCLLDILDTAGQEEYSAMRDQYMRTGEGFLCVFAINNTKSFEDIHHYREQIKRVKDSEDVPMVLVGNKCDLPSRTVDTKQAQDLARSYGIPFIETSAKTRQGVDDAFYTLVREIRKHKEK
- Sequence (P62937 whole entry): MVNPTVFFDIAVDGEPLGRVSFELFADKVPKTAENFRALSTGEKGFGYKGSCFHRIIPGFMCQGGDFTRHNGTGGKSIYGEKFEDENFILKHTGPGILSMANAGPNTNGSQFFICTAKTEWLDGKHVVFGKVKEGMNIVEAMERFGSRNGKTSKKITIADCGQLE
- procedure.text: Ras-Raf (BRAF RBD) disruption / FRET / MOA assay, KRAS G12C
- Assay type: biochemical
- experimental.parameters: KRAS G12C; Ras-Raf disruption/FRET/MOA assay; read-out: IC50* KRAS G12C FRET data
- Protocol: The purpose of this biochemical assay is to measure the ability of test compounds to facilitate ternary complex formation between a nucleotide-loaded Ras isoform and cyclophilin A; the resulting ternary complex disrupts binding to a BRAF^RBD construct, inhibiting Ras signaling through a RAF effector. Compound is present in plate wells as a 10-point 3-fold dilution series starting at a final concentration of 30 μM. […]
experimental.endpoint: IC50

# chemical.string, experimental.endpoint, result
measured = [
    ("C=CC(=O)N1CC[C@H](C(=O)N(C)[C@H](C(=O)N[C@H]2Cc3csc(n3)-c3ccc4c(c3)c(c(-c3cccnc3COC)n4CC)CC(C)(C)COC(=O)[C@@H]3CCCN(N3)C2=O)C(C)C)C1", "IC50", "100 to 1000 nM"),
    ("CCn1c(-c2cccnc2[C@H](C)OC)c2c3cc(ccc31)-c1cccc(c1)C[C@H](NC(=O)[C@H](C(C)C)N(C)C(=O)N1CCC13CN(C(=O)C#CC(C)(C)N(C)C)C3)C(=O)N1CCC[C@H](N1)C(=O)OCC(C)(C)C2", "IC50", "10 to 100 nM"),
]
